# credit: patent US9850225B2

# TEST SYSTEM: PD-1/PD-L1 interaction (PD-1-Ig / PD-L1-His) (Homo sapiens (Human))
# Sequence (Q9NZQ7 other isoform, or with tags, fused parts or gaps): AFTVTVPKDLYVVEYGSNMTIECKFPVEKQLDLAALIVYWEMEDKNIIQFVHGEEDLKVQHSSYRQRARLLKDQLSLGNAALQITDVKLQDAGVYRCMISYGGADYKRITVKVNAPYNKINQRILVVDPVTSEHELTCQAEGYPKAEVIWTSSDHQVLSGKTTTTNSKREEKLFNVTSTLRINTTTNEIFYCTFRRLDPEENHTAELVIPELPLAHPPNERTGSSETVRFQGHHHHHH
# METHOD: PD-1/PD-L1 Homogenous Time-Resolved Fluorescence (HTRF) binding assay
# SETTINGS: PD-1/PD-L1 HTRF binding assay; value given as range class; read-out: Range or IC50
pIC50: −log10 of the molar value.
A collection of molecules and their measured pIC50

Solved entries (count: 3):
pIC50 for CC(=O)NCCNCc1ccc(OCc2cccc(-c3ccc4c(c3)OCCO4)c2C)c(Cl)c1OCc1cccc(C#N)c1 [Example 1237] is 4.70 to 7.00

Recorded pIC50 (molecule Cc1c(COc2cc(OCc3cccc(C#N)c3)c(CN[C@@H](C(=O)O)[C@@H](C)O)cc2Cl)cccc1-c1ccc2c(c1)OCCO2 [Example 1163] ): 8.00 to 9.22

Looking up Cc1c(COc2cc(OCc3cccc(C#N)c3)c(CNC(Cc3ccc(O)cc3)C(=O)O)cc2Cl)cccc1-c1ccc2c(c1)OCCO2 (centres unmarked) [Example 1187] , I found its pIC50 recorded as 7.00 to 8.00

Others:
Form: molecule = C=Cc1cc(CN2CCCC[C@H]2C(=O)O)c(OCc2cccc(C#N)c2)cc1OCc1cccc(-c2ccc3c(c2)OCCO3)c1C [Example 1293] ; pIC50 = 8.00 to 9.22

What the record says about Cc1c(COc2ccc(CNC[C@@H](O)CC(=O)O)c(OCc3cncc(C#N)c3)c2)cccc1-c1ccccc1 [Example 1328] : pIC50 is 8.00 to 9.22

response.value for COCCCOc1cc(OCc2cccc(-c3ccccc3)c2C)ccc1CNCCNC(C)=O [Example 1042] (field: pIC50) = 4.70 to 7.00

For record CC(=O)NCCNCc1cc(C)c(OCc2cccc(-c3ccc4c(c3)OCCO4)c2C#N)cc1OCc1cncc(C#N)c1 [Example 1305] the listed pIC50 is 8.00 to 9.22

Please fill in: pIC50 reported for Cc1c(COc2cc(OCc3cccc(C#N)c3)c(CNC(C(=O)O)C(F)(F)F)cc2Cl)cccc1-c1ccc2c(c1)OCCO2 (centres unmarked) [Example 1162] = 4.70 to 7.00

The reported pIC50 of the molecule Cc1cc(CN2CCCC[C@@H]2C(=O)O)c(OCc2cncc(C#N)c2)cc1OCc1cccc(-c2ccc3c(c2)OCCO3)c1Cl [Example 1155] was 8.00 to 9.22

Value of pIC50 reported for the molecule Cc1c(COc2cc(OCC(N)=O)c(CN[C@@H](CO)C(=O)O)cc2Cl)cccc1-c1ccc2c(c1)OCCO2 [Example 3030] is 8.00 to 9.22

pIC50 for Cc1c(COc2ccc(CN[C@@H](CO)C(=O)O)c(OCc3cccc(C#N)c3)c2)cccc1-c1ccccc1 [Example 1018] is 8.00 to 9.22

Consider Cc1c(COc2cc(OCc3cccc(C#N)c3)c(CN[C@H](C)C(=O)O)cc2Cl)cccc1-c1ccc2c(c1)OCCO2 [Example 1169] . Its measured pIC50 is 8.00 to 9.22

Looking up CC(=O)NCCNCc1ccc(OCc2cccc(-c3ccccc3)c2C)cc1OCc1cccc(OC(F)F)c1 [Example 1116] , I found its pIC50 recorded as 4.70 to 7.00

Per the records, this molecule ( Cc1c(COc2cc(OCc3cccc(C#N)c3)c(CN3CCN(C)CC3C(=O)O)cc2Cl)cccc1-c1ccc2c(c1)OCCO2 (centres unmarked) [Example 1224] ) has pIC50 equal to 7.00 to 8.00

---

# maps each entry to its IC50
# TEST SYSTEM: PD-1/PD-L1 interaction (PD-1-Ig / PD-L1-His) (Homo sapiens (Human))
# METHOD: PD-1/PD-L1 Homogenous Time-Resolved Fluorescence (HTRF) binding assay
# SETTINGS: PD-1/PD-L1 HTRF binding assay; value given as range class; read-out: Range or IC50

Field: example entries. Status: answers known.
Record Cc1cc(CNC[C@@H](O)CC(=O)O)c(OCc2cncc(C#N)c2)cc1OCc1cccc(-c2ccc3c(c2)OCCO3)c1C [Example 1283] . Reported IC50: 0.6 to 10 nM

Query Cc1c(COc2cc(OCc3cncc(C#N)c3)c(CN3CCCC[C@H]3C(=O)NS(=O)(=O)c3cn(C)cn3)cc2Cl)cccc1-c1ccc2c(c1)OCCO2 [Example 1261] yields IC50 of 0.6 to 10 nM

response.value for Cc1c(COc2cc(OCc3cccc(C#N)c3)c(CN[C@H](C(=O)O)[C@H](C)O)cc2Cl)cccc1-c1ccc2c(c1)OCCO2 [Example 1189] (field: IC50) = 0.6 to 10 nM

Please fill in: IC50 reported for Cc1c(COc2ccc(CN3CCCC[C@H]3C(=O)O)c(OCc3cccc(C#N)c3)c2Cl)cccc1-c1ccc2c(c1)OCCO2 [Example 1236] = 100 to 20000 nM

Kindly note the recorded IC50 for Cc1c(COc2cc(OCc3cncc(Br)c3)c(CN[C@](C)(CO)C(=O)O)cc2Cl)cccc1-c1ccc2c(c1)OCCO2 [Example 1254] , which is 0.6 to 10 nM

Now consider a different compound.
The compound Cc1c(COc2cc(OCc3cncc(C#N)c3)c(CN3CCCC[C@@H]3C(=O)O)cc2Br)cccc1-c1ccc2c(c1)OCCO2 [Example 1323] showed IC50 equal to 0.6 to 10 nM

---

# TEST SYSTEM: PD-1/PD-L1 interaction (PD-1-Ig / PD-L1-His) (Homo sapiens (Human))
# METHOD: PD-1/PD-L1 Homogenous Time-Resolved Fluorescence (HTRF) binding assay
# SETTINGS: PD-1/PD-L1 HTRF binding assay; μM; read-out: Range or IC50
MEASUREMENT TYPE: IC50 (µM)
# output: bare number, implied unit µM

# lookup: COc1ccccc1COc1cc(OCc2cccc(-c3ccc4c(c3)OCCO4)c2C)c(Cl)cc1CN1CCCC[C@H]1C(=O)O [Example 3029] on PD-1/PD-L1 interaction (PD-1-Ig / PD-L1-His) (Homo sapiens (Human)), IC50 = 2.35

---

molecules and their reported pIC50
# TEST SYSTEM: PD-1/PD-L1 interaction (PD-1-Ig / PD-L1-His) (Homo sapiens (Human))
# METHOD: PD-1/PD-L1 Homogenous Time-Resolved Fluorescence (HTRF) binding assay
# SETTINGS: PD-1/PD-L1 HTRF binding assay; value given as range class; read-out: Range or IC50
pIC50: −log10 of the molar value. Counter-ions that a name gives are not always drawn.

Completed entries (count: 5):
pIC50 for CC(=O)NCCNCc1cc(Br)c(OCc2cccc(-c3ccc4c(c3)OCCO4)c2C#N)cc1OCc1cccc(C#N)c1 [Example 1315] is 8.00 to 9.22

Lab note: CC(=O)NCCNCc1ccc(OCc2cccc(-c3ccc4c(c3)OCCO4)c2Cl)cc1OCc1cccc(C#N)c1 [Example 1150] gave pIC50 of 7.00 to 8.00

The measured pIC50 associated with Cc1cc(CN2CCCC[C@H]2C(=O)O)c(OCCCCC#N)cc1OCc1cccc(-c2ccc3c(c2)OCCO3)c1C [Example 1296] reads 7.00 to 8.00

// CC(=O)NCCNCc1ccc(OCc2cccc(-c3ccccc3)c2C)cc1OCc1ccc(Br)cc1C#N [Example 1097] : pIC50 value = 4.70 to 7.00

The reported pIC50 of the molecule Cc1c(COc2cc(OCc3cccc(C#N)c3)c(CNC(C)(C)CN3CCN(C)CC3)cc2Cl)cccc1-c1ccc2c(c1)OCCO2 [Example 1223] was 8.00 to 9.22

Next:
Reported pIC50 ( Cc1c(COc2ccc(CNC[C@@H](O)CC(=O)O)c(OCc3ccc(F)c(C#N)c3)c2)cccc1-c1ccccc1 [Example 1331] ) = 8.00 to 9.22

Noted for Cc1c(COc2cc(OCc3cncc(C#N)c3)c(CN3CCCC[C@H]3C(=O)NS(=O)(=O)C(F)(F)F)cc2Cl)cccc1-c1ccc2c(c1)OCCO2 [Example 1258] : its pIC50 reads 7.00 to 8.00

So for Cc1c(COc2cc(OCc3cncc(C#N)c3)c(CN3CCCC[C@H]3C(=O)NS(=O)(=O)C(C)C)cc2Cl)cccc1-c1ccc2c(c1)OCCO2 [Example 1260] , the logged pIC50 turned out to be 8.00 to 9.22

Measured pIC50 of Cc1c(COc2cc(OCc3cncc(C#N)c3)c(CN[C@@H](CO)C(=O)O)cc2Br)cccc1-c1ccc2c(c1)OCCO2 [Example 1318] : 8.00 to 9.22

What the record says about CC(=O)NCCNCc1ccc(OCc2cccc(-c3ccccc3)c2C)cc1OCc1cc(F)cc(F)c1 [Example 1062] : pIC50 is 4.70 to 7.00

// recorded pIC50 for CC(=O)NCCNCc1ccc(OCc2cccc(-c3ccccc3)c2C)cc1OCc1ccc(-c2ccccc2C#N)cc1 [Example 1089] : 4.70 to 7.00

Value of pIC50 reported for the molecule Cc1c(COc2cc(OCc3cccc(C#N)c3)c(CN[C@@H](C(=O)O)c3ccc(O)cc3)cc2Cl)cccc1-c1ccc2c(c1)OCCO2 [Example 1161] is 7.00 to 8.00

Cc1c(COc2cc(O)c(CN[C@](C)(CO)C(=O)O)cc2Cl)cccc1-c1ccc2c(c1)OCCO2 [Example 1263, TFA] yielded pIC50 of 4.70 to 7.00

Record CC(=O)NCCNCc1c(C)cc(OCc2cccc(-c3ccc4c(c3)OCCO4)c2C)cc1OCc1cncc(C#N)c1 [Example 1005] . Reported pIC50: 8.00 to 9.22
